# Assay system: UniProt:P07339
# Sequence (P07339 65-412, species assumed): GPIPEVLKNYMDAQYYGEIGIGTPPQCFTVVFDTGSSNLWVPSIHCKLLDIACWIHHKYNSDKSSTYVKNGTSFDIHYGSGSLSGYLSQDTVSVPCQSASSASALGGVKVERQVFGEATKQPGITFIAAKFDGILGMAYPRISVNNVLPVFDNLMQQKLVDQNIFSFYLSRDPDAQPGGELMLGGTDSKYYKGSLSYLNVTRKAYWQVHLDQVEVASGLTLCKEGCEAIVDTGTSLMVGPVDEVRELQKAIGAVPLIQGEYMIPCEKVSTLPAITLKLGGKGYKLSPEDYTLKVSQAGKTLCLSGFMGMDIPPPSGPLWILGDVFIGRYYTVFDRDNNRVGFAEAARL
# Assay: In vitro enzymatic Cathepsin D (Cat D) FRET assay
# Assay type: biochemical
# Condition description: text summary referring to data in Table 2
pIC50: −log10 of the molar value.
Parameter measured: pIC50

- Cc1cc(Cl)cnc1C(=O)Nc1ccc2c(c1)[C@@]1(C)N=C(N)C(C)(C)S(=O)(=O)[C@@]1(C)CCO2: < 3.10
- COCc1ccc(C(=O)Nc2ccc3c(c2)[C@@]2(C)N=C(N)C(C)(C)S(=O)(=O)[C@@H]2CCO3)nc1: < 2.92
- CC#C[C@@H](C)Oc1cnc(C(=O)Nc2ccc3c(c2)[C@@]2(C)N=C(N)C(C)(C)S(=O)(=O)[C@@H]2CCO3)cn1: < 3.10
- Cc1cc(C(F)(F)F)cnc1C(=O)Nc1ccc2c(c1)[C@@]1(C)N=C(N)C(C)(C)S(=O)(=O)[C@@H]1CCC2: < 2.92
- C[C@H]1C[C@@H]2[C@](C)(N=C(N)C(C)(C)S2(=O)=O)c2cc(NC(=O)c3ccc(C(F)(F)F)cn3)ccc2O1: < 2.92
- C[C@H]1C[C@@H]2[C@](C)(N=C(N)C(C)(C)S2(=O)=O)c2cc(NC(=O)c3cnc(OCc4cnn(C)c4)cn3)ccc2O1: < 2.92
- COc1cnc(C(=O)Nc2ccc3c(c2)[C@@]2(C)N=C(N)C(C)(C)S(=O)(=O)[C@H]2CCC3)cn1: < 2.92
- Cc1cc(OC(F)F)cnc1C(=O)Nc1ccc2c(c1)[C@@]1(C)N=C(N)C(C)(C)S(=O)(=O)[C@@H]1CCC2: < 2.92
- Cc1cc(Cl)cnc1C(=O)Nc1cnc2c(c1)[C@@]1(C)N=C(N)C(C)(C)S(=O)(=O)[C@@H]1CCO2: < 2.92
- Cc1cc(C(F)(F)F)cnc1C(=O)Nc1ccc2c(c1)[C@@]1(C)N=C(N)C(C)(C)S(=O)(=O)[C@@H]1C[C@H](C)O2: < 2.92
- COc1cnc2c(Nc3ccc4c(c3)[C@@]3(C)N=C(N)C(C)(C)S(=O)(=O)[C@@H]3C[C@H](C)O4)nccc2n1: < 3.10
- CC1(C)C(N)=N[C@]2(C)c3cc(NC(=O)c4cc5ccccc5cn4)ccc3OCC[C@H]2S1(=O)=O: < 2.92
- Cc1nc(OCC(F)F)cnc1C(=O)Nc1ccc2c(c1)[C@@]1(C)N=C(N)C(C)(C)S(=O)(=O)[C@@H]1CCO2: < 2.92
- COc1cnc(C(=O)Nc2ccc3c(c2)[C@@]2(C)N=C(N)C(C)(C)S(=O)(=O)[C@@H]2CCC3)c(C)c1: < 2.92
